experimental_protocol: AUClast in Lewis rat at 3 mg/kg, iv
Type: ADME, organism-based
Set-up: time 0 - last, dose 3 mg/kg, route intravenous
condition_parameters: plasma
measurement_kind: AUC(0-t) (ng·h/mL)

- CCCCCN1C(=O)C2(COc3cc4c(cc32)OCO4)c2ccccc21 (stereo unspecified): 320

###

experimental_protocol: Metabolic stability in human hepatocytes assessed as compound remaining after 2 hrs
Assay type: ADME, cell-based, Hepatocyte
condition_parameters: read-out: Stability
measurement_kind: remaining at 2 h (%)

• CCCCCN1C(=O)C2(COc3cc4c(cc32)OCO4)c2ccccc21 (stereo unspecified) = 34

###

experimental_protocol: Cmax in Lewis rat at 10 mg/kg, po
Format: ADME, organism-based
Parameters: dose 10 mg/kg, route oral
condition_parameters: in vivo
measurement_kind: Cmax (ng/mL)

* CCCCCN1C(=O)C2(COc3cc4c(cc32)OCO4)c2ccccc21 (stereo unspecified) | 35

###

experimental_protocol: Permeability from apical to basolateral side in human Caco2 cells
Format: ADME, cell-based
condition_parameters: Caco-2, read-out: permeability
Each entry gets 0 if its Papp A→B stays under 80 nm/s, and 1 if its Papp A→B is 80 nm/s or above.

- CCCCCN1C(=O)C(N)(c2ccc3c(c2)OCO3)c2ccccc21 (stereo not given): 1
- CCCCCN1C(=O)C(O)(c2ccc3c(c2)OCO3)c2ccccc21 (stereo not given): 1
- O=C1N(Cc2ccc(C(F)(F)F)cc2)c2ccccc2C1(O)c1ccc2c(c1)OCO2 (stereo not given): 0
- CCCCCN1C(=O)C2(COc3cc4c(cc32)OCO4)c2ccccc21 (stereo not given): 0
- O=C1N(Cc2ccc(Cl)cc2)c2ccccc2C1(O)c1ccccc1 (stereo not given): 1
- CCCCCN1C(=O)C(C)(c2ccc3c(c2)OCO3)c2ccccc21 (stereo not given): 0
- CCC(C)CCN1C(=O)C(O)(c2ccc3c(c2)OCO3)c2ccccc21 (stereo not given): 1
- CCCCCN1C(=O)C2(CCc3cc4c(cc32)OCO4)c2ccccc21 (stereo not given): 0
- O=C1N(Cc2ccc3c(c2)OCO3)c2ccccc2C1(O)c1ccc2c(c1)OCO2 (stereo not given): 0
- COc1ccc(CN2C(=O)C(O)(c3ccc4c(c3)OCO4)c3ccccc32)cc1 (stereo not given): 0
- O=C1N(CCC2CC2)c2ccccc2C1(O)c1ccc2c(c1)OCO2 (stereo not given): 1
- O=C1N(Cc2ccc(Cl)cc2)c2ccccc2C1(O)c1ccc2c(c1)OCO2 (stereo not given): 1
- O=C1N(CC2CCC2)c2ccccc2C1(O)c1ccc2c(c1)OCO2 (stereo not given): 1
- O=C1N(Cc2ccc(Cl)cc2)c2ccccc2C1(O)c1ccc2c(c1)OCCO2 (stereo not given): 0
- O=C1N(Cc2ccccc2)c2ccccc2C1(O)c1ccc2c(c1)OCO2 (stereo not given): 1

###

Papp B→A for assorted compounds
experimental_protocol: Permeability from basolateral to apical side in human Caco2 cells
Format: ADME, cell-based
condition_parameters: Caco-2, read-out: permeability
measurement_kind: Papp B→A (×10⁻⁶ cm/s)

• O=C1N(Cc2ccc(Cl)cc2)c2ccccc2C1(O)c1ccc2c(c1)OCCO2 (stereo unspecified) = 3.5
• CCCCCN1C(=O)C(O)(c2ccc3c(c2)OCO3)c2ccccc21 (stereo unspecified) = 25.4
• O=C1N(CC2CCC2)c2ccccc2C1(O)c1ccc2c(c1)OCO2 (stereo unspecified) = 21.1
• O=C1N(CCC2CC2)c2ccccc2C1(O)c1ccc2c(c1)OCO2 (stereo unspecified) = 19.8
• O=C1N(Cc2ccccc2)c2ccccc2C1(O)c1ccc2c(c1)OCO2 (stereo unspecified) = 13.6
• COc1ccc(CN2C(=O)C(O)(c3ccc4c(c3)OCO4)c3ccccc32)cc1 (stereo unspecified) = 11.9

Data credit: ChEMBL document CHEMBL1777780
